Origin of the recorded values: ChEMBL document CHEMBL1275506

- Tested on: Escherichia coli
- test_method_notes: Antibacterial activity against Escherichia coli J53 by Etest
- Format: functional
attribute_measured: MIC (µg/mL)
Give bare numbers, in µg/mL.

# count of solved cases: 5
[
  {
    "compound": "CC(=O)OCC1=C(C(=O)O)N2C(=O)[C@@H](NC(=O)Cc3cccs3)[C@H]2SC1 [CEPHALOTHIN]",
    "MIC (µg/mL)": 8
  },
  {
    "compound": "CO[C@@]1(NC(=O)Cc2cccs2)C(=O)N2C(C(=O)O)=C(COC(N)=O)CS[C@@H]21 [CEFOXITIN]",
    "MIC (µg/mL)": 2
  },
  {
    "compound": "CC(C)(O/N=C(\\C(=O)N[C@@H]1C(=O)N2C(C(=O)[O-])=C(C[n+]3ccccc3)CS[C@H]12)c1csc(N)n1)C(=O)O [CEFTAZIDIME]",
    "MIC (µg/mL)": 0.06
  },
  {
    "compound": "CC1(C)S[C@@H]2[C@H](NC(=O)[C@H](N)c3ccc(O)cc3)C(=O)N2[C@H]1C(=O)O [AMOXICILLIN]",
    "MIC (µg/mL)": 4
  },
  {
    "compound": "CO/N=C(\\C(=O)N[C@@H]1C(=O)N2C(C(=O)O)=C(COC(C)=O)CS[C@H]12)c1csc(N)n1 [CEFOTAXIME]",
    "MIC (µg/mL)": 0.06
  }
]

Read off the recorded MIC for CC1(C)S[C@@H]2[C@H](NC(=O)[C@H](C(=O)O)c3ccsc3)C(=O)N2[C@H]1C(=O)O [TICARCILLIN] 4
